# Tested on: Aspergillus flavus
# assay: Antifungal activity against Aspergillus flavus ATCC 9170
# Format: functional
Please go through the items and note down their MFC.

For orientation, consider the following solved cases.
CC1=C(C)C(=O)N(CCc2ccccc2)C1=O    > 250 µg/mL
O=C1C=CC(=O)N1c1ccc(I)cc1    125 µg/mL
CC1=C(C)C(=O)N(CCCc2ccccc2)C1=O    > 250 µg/mL
CCN1C(=O)C=CC1=O [N-ETHYLMALEIMIDE]    15.6 µg/mL
O=C1C=CC(O)N1Cc1ccccc1 (configuration not stated)    > 250 µg/mL
O=C1C(c2ccccc2)=C(c2ccccc2)C(=O)N1CCCCc1ccccc1    > 250 µg/mL

Let us examine a further case.
API: value(readout=MFC, system=Aspergillus flavus) for record `O=C1CCC(=O)N1CCCCc1ccccc1`
> 250 µg/mL

----------
Give measured MFC for each item. Keep answers brief.
# System: Cryptococcus neoformans
# assay: Antifungal activity against Cryptococcus neoformans ATCC 32264
# Assay type: functional
One number for each entry, in µg/mL.

A selection of reference data follows.
CN1C(=O)C=CC1=O    62.5
O=C1C=CC(=O)N1c1ccc2c(c1)OCO2    15.6
COc1cccc(N2C(=O)C=CC2=O)c1    7.81
CCN1C(=O)C=CC1=O [N-ETHYLMALEIMIDE]    31.2
CC(C)(C)c1ccccc1N1C(=O)C=CC1=O    7.81

Please give MFC for each item listed below.
1. CC1=C(C)C(=O)N(Cc2ccccc2)C1=O
2. O=C1C=CC(=O)N1Cc1ccccc1
3. O=C1C=CC(=O)N1c1ccc(I)cc1
4. O=C1C(Cl)=C(Cl)C(=O)N1CCCc1ccccc1
5. COc1ccc(N2C(=O)C=CC2=O)cc1OC
6. CC1=CC(=O)N(CCCCc2ccccc2)C1=O
7. CC1=C(C)C(=O)N(CCCc2ccccc2)C1=O

250
15.6
15.6
3.9
15.6
62.5
250

----------
So I've got a bunch of compounds here, and I need their MIC values.
# Test system: Aspergillus niger
# assay: Antifungal activity against Aspergillus niger ATCC 9029
# Format: functional

O=C1C(c2ccccc2)=C(c2ccccc2)C(=O)N1CCCCc1ccccc1    > 250 µg/mL
CC(C)(C)c1ccccc1N1C(=O)C=CC1=O    62.5 µg/mL
O=C1C(c2ccccc2)=C(c2ccccc2)C(=O)N1CCc1ccccc1    > 250 µg/mL
O=C1CCC(=O)N1c1ccccc1    > 250 µg/mL
O=C(O)/C=C\C(=O)NCc1ccccc1    > 250 µg/mL
O=C1C(Cl)=C(Cl)C(=O)N1c1ccccc1    > 250 µg/mL
CC1=CC(=O)N(Cc2ccccc2)C1=O    62.5 µg/mL
CC1=CC(=O)N(Cc2ccccc2)C1O (configuration not stated)    > 250 µg/mL

Dear colleague, could you send me MIC for each of the items below? Thanks.
1. O=C1C=CC(O)N1c1ccccc1 (configuration not stated)
2. CN1C(=O)C=CC1=O
3. CC1=CC(O)N(CCc2ccccc2)C1=O (configuration not stated)

> 250 µg/mL
7.81 µg/mL
> 250 µg/mL

----------
Would you kindly list HC50 for each of these compounds?
# assay: Cytotoxicity against human erythrocytes assessed as hemolysis by spectrometric analysis
# Type: cell-based, Erythrocyte

A selection of reference data follows.
Cc1ccccc1N1C(=O)C=CC1=O    > 250 µg/mL
O=C1C=CC(=O)N1c1ccc(F)cc1    > 250 µg/mL

// for each compound below, give its HC50
1. O=C1C=CC(=O)N1c1ccc(I)cc1
2. CCCN1C(=O)C=CC1=O

1: > 250 µg/mL; 2: > 250 µg/mL

Okay, here is my list. What is HC50 for each of these?
1. Cc1ccc(N2C(=O)C=CC2=O)cc1
2. CC1=CC(=O)N(CCCc2ccccc2)C1=O
3. CC(C)(C)c1ccccc1N1C(=O)C=CC1=O
4. O=C1C(Cl)=C(Cl)C(=O)N1CCCc1ccccc1
5. O=C1C(Cl)=C(Cl)C(=O)N1CCc1ccccc1
6. CN1C(=O)C=CC1=O

> 250 µg/mL
> 250 µg/mL
> 250 µg/mL
> 250 µg/mL
> 250 µg/mL
> 250 µg/mL

Items follow; give HC50 for each.
1. COc1cccc(N2C(=O)C=CC2=O)c1
2. COc1ccc(N2C(=O)C=CC2=O)cc1
3. O=C1C=CC(=O)N1Cc1ccccc1

1. > 250 µg/mL
2. > 250 µg/mL
3. > 250 µg/mL

List the reported HC50 of each compound below.
1. O=C1C=CC(=O)N1c1ccccc1
2. O=C1C=CC(=O)N1c1ccc(F)cc1F
3. O=C1C=CC(=O)N1CCCc1ccccc1
4. O=C1C=CC(=O)N1c1ccc(Cl)cc1

> 250 µg/mL
> 250 µg/mL
> 250 µg/mL
> 250 µg/mL
